This collection of values is drawn from ChEMBL document CHEMBL1201862.

- Tested on: MDA-MB-435
- assay_info: NCI tumour cell line growth inhibition, 48 h
Calls of active or inactive are those of the source. No stated cut-off is given here; in the data, active = GI50 up to about 1.1 µM and inactive = higher.
recorded_endpoint: GI50

# count of solved cases: 8
| compound | GI50 |
| --- | --- |
| O=[N+]([O-])C(/C=C(\Cl)[N+](=O)[O-])=C1Nc2ccccc2N1 | 42.6 µM (inactive) |
| COC1=C(OC)C(=O)C(Cc2c(C)nc3sc(C)cn23)=C(C)C1=O | 17.9 µM (inactive) |
| O=C1SC(c2ccc(Cl)cc2)(c2ccc(Cl)cc2)c2ccccc21 | 61.5 µM (inactive) |
| Cc1cc2c(cc1C)[n+]([O-])c(N1CCN(c3ccc([N+](=O)[O-])cc3)CC1)c(C#N)[n+]2[O-] | > 100 µM (inactive) |
| CCc1c2c(cc3c1CC1(C3)Cc3cc4c(c(C(=O)OC)c3C1)CCCC4)CCCC2 (stereo unspecified) | > 100 µM (inactive) |
| Nc1nc(N)c2ncn(Cc3ccccc3CCl)c2n1 | > 100 µM (inactive) |
| N#CC12C(=O)N=C(N)C1(C#N)C(c1ccco1)NC1=C2CCCC1 (stereo unspecified) | > 100 µM (inactive) |
| O=c1c2cc(Cl)ccc2[nH]c2cc(O)cc(O)c12 | > 10 µM (inactive) |

Record GI50 for all entries; do not skip any.
1. CC(=O)O[C@@H]1C2=C(C3=C([O-])C4=CC=CC(=O)C4C(=O)C3=C2[N+]#N)[C@H](OC(C)=O)[C@@H](OC(C)=O)[C@]1(C)O (stereo partly specified)
2. CN(C)CN1C(=O)S/C(=C2\C(=O)N(CN(C)C)c3ccccc32)C1=O
3. CSCCC(N)P(C)(=O)O (stereo unspecified)

1: 0.644 µM (active); 2: 66.1 µM (inactive); 3: > 22.2 µM (inactive)

* * *

- Test system: DLD-1
- assay_info: NCI tumour cell line growth inhibition, 48 h
Active and inactive are the calls of the source. Cut-off read from the data, not from the text of the source: active = GI50 up to about 1.1 µM and inactive = higher.
Valid outcomes are listed here; reply with one: Y (active), N (inactive)

| compound | measured_on | class_name |
| --- | --- | --- |
| CC(C)(C)c1ccc2c(c1)S(=O)(=O)Nc1ccc(Cl)cc1NS(=O)(=O)c1cc(C(C)(C)C)ccc1OCCOCCOCCO2 | DLD-1 | N |
| N#Cc1cn(C2OC(CO)C(O)C2O)c2ncnc(N)c12 (centres undefined) | DLD-1 | Y |
| S=C1CNC(=S)CN1 | DLD-1 | N |

Dear all, I need the recorded test outcome for `O=C(Nc1ccc(Cl)cc1)/C(Cc1cccc[n+]1[O-])=N\Nc1ccc([N+](=O)[O-])cc1[N+](=O)[O-]` , thank you.
N

* * *

- System: COLO 205
- assay_info: NCI tumour cell line growth inhibition, 48 h
Activity calls are given as the source filed them. No stated cut-off is given here; in the data, active = GI50 up to about 1.1 µM and inactive = higher.
Permitted responses: 1 (active), -1 (inactive)

Before answering, review these 6 worked examples.
| compound | class_name |
| --- | --- |
| CCOC(=O)NC(=S)NC(C)c1ccccc1 (stereo unspecified) | -1 |
| CC(C)=CC(=O)Cc1nc2ccc([N+](=O)[O-])cc2[nH]c1=O | -1 |
| CC(C(=O)N1c2ccccc2Sc2ccccc21)N1c2ccccc2Sc2ccccc21 (stereo unspecified) | -1 |
| Brc1ccc(-c2cc3c(cc2C2SCCS2)OCO3)cc1 | -1 |
| N#Cc1[nH]c(=S)[nH]c1N | -1 |
| CCCCCC(C)(C)CCC(=O)OC1OC(COC2OC(COC3OC(CO)C(O)C(O)C3O)C(O)C(O)C2O)C(O)C(O)C1O (stereo unspecified) | -1 |

Per the records of this test, what outcome belongs to `O=C(N/N=C(COc1ccccc1Cl)\N=C\c1ccncc1)c1ccncc1` ?
-1

Give the logged outcome of this assay for the following compound: CC(c1ccc2c(c1)CCC1C2CC2OC23CC=CC(=O)[C@]13C)C1C[C@]2(C)O[C@]2(C)[C@H](O)O1 (stereo partly specified)
-1

What is the recorded call for this compound in the test? CC1CC(C)C2=NOS3=C2C1=NO3 (stereo unspecified)
-1

Just curious, what result did O=P(CCOc1ccccc1OCCP(=O)(c1ccccc1)c1ccc2c(c1)OCCOCCOCCOCCO2)(c1ccccc1)c1ccc2c(c1)OCCOCCOCCOCCO2 (stereo unspecified) get here?
-1

Any idea what this test logged for `CCCCCCCCCCCCCCCC(=O)OCCOCCOCCOCCOCCOC(=O)CCCCCCCCCCCCCCC` ?
-1

How was CC(OC(C)(C)C)[C@H](NC(=O)OC(C)(C)C)C(=O)O (stereo partly specified) classified in this test?
-1

Could you kindly confirm the outcome this assay logged for `CN(C)CCNC(=O)Cc1ccccc1Nc1c(Cl)cccc1Cl` ?
-1

Could you please tell me the result logged for CC#CC(O)(C(=O)OC1CC(C)N(C)C(C)(C)C1)C1CCCC1 (stereo unspecified) in this assay?
-1

Dear colleague, could you share the recorded outcome for `O=NN(CCCl)C(=O)N[C@H]1CC[C@H](C(=O)O)CC1` when you have a moment?
-1
